Measured Endpoint: glass transition temperature (°C)
One number for each entry, in °C.

*CC(*)(C)C(=O)OC1CCCC1 (repeat unit): 75.00
*NC(CCC(=O)OCCCC)C(*)=O (repeat unit): -15.00
*CN1C(=O)c2ccc(C(c3ccc4c(c3)C(=O)N(Cc3nnc(-c5ccc(-c6nnc(*)o6)c(Oc6ccccc6)c5)o3)C4=O)(C(F)(F)F)C(F)(F)F)cc2C1=O (repeat unit): 208.00
*C(=O)c1cccc(C(=O)N2CCN(*)CC2)c1 (repeat unit): 214.50

Recorded glass transition temperature for *Oc1ccc(C(c2ccc(OC(*)=O)cc2)C2CCCCC2)cc1 (repeat unit) , please?
190.00
